Test system: rodent lifetime carcinogenesis bioassay, tumor incidence TD50
Assay: carcinogenic potency in animals, long-term in vivo studies, CPDB compilation (AID 1745844)
Settings: mouse; strain Swiss albino; males; in drinking water; site: liver; lesion: several types; types named in the paper; dosed 60 weeks; study length 60 weeks
property.label: TD50

>>> result("CCN(N)C=O")
"17.7 mg/kg/day"

====

Test system: rodent lifetime carcinogenesis bioassay, tumor incidence TD50
Assay: carcinogenic potency in animals, long-term in vivo studies, CPDB compilation (AID 1745844)
Conditions: mouse; strain Swiss albino; males; by gavage; site: liver; lesion: hepatocellular carcinoma; dosed 53 weeks; study length 119 weeks
property.label: TD50 (mg/kg/day)

>>> quantitative_readout("CC(C)C/C=N/N(C)C=O")
34.2

====

Test system: rodent lifetime carcinogenesis bioassay, tumor incidence TD50
Test: carcinogenic potency in animals, long-term in vivo studies, CPDB compilation (AID 1745844)
Details: mouse; strain B6C3F1; females; by gavage; site: all sites; lesion: malignant lymphoma; dosed 104 weeks; study length 104 weeks
property.label: TD50

>>> result("COC1COC(OC2COC(OC3COC(OC4COC(OC)C(OS(=O)(=O)O)C4OS(=O)(=O)O)C(OC4OC(C(=O)O)C(OC)C(OS(=O)(=O)O)C4OS(=O)(=O)O)C3OS(=O)(=O)O)C(OS(=O)(=O)O)C2OS(=O)(=O)O)C(OS(=O)(=O)O)C1OS(=O)(=O)O (stereo unspecified)")
"927 mg/kg/day"

====

Test system: rodent lifetime carcinogenesis bioassay, tumor incidence TD50
Experiment: carcinogenic potency in animals, long-term in vivo studies, CPDB compilation (AID 1745844)
Details: rat; strain Fischer 344; males; in drinking water; site: tongue; lesion: squamous-cell carcinoma + squamous-cell papilloma; dosed 97 weeks; study length 97 weeks
property.label: TD50 (mg/kg/day)

>>> quantitative_readout("COc1cc(-c2ccc(N=Nc3c(S(=O)(=O)O)cc4cc(S(=O)(=O)O)cc(N)c4c3O)c(OC)c2)ccc1N=Nc1c(S(=O)(=O)O)cc2cc(S(=O)(=O)O)cc(N)c2c1O")
371

====

System: rodent lifetime carcinogenesis bioassay, tumor incidence TD50
Experiment: carcinogenic potency in animals, long-term in vivo studies, CPDB compilation (AID 1745844)
Settings: mouse; strain B6C3F1; males; in feed; site: liver; lesion: hepatocellular adenoma + hepatocellular carcinoma; dosed 78 weeks; study length 95 weeks
property.label: TD50

>>> result("CCn1c2ccccc2c2cc(N)ccc21")
"49.8 mg/kg/day"
>>> result("O=[N+]([O-])c1ccc2nc[nH]c2c1")
"392 mg/kg/day"
>>> result("Nc1ccc(Cl)cc1N")
"957 mg/kg/day"

====

Test system: rodent lifetime carcinogenesis bioassay, tumor incidence TD50
Assay: carcinogenic potency in animals, long-term in vivo studies, CPDB compilation (AID 1745844)
Details: rat; strain Fischer 344; males; by gavage; site: liver; lesion: cholangiocarcinoma; dosed 103 weeks; study length 105 weeks
property.label: TD50

>>> result("O=Cc1ccco1")
"683 mg/kg/day"

====

Test system: rodent lifetime carcinogenesis bioassay, tumor incidence TD50
Assay: carcinogenic potency in animals, long-term in vivo studies, CPDB compilation (AID 1745844)
Settings: rat; strain Sas:MRC(WI)BR; females; in feed; site: mammary gland; lesion: fibroadenoma; dosed 147 weeks; study length 151 weeks
property.label: TD50

>>> result("Cc1ncc([N+](=O)[O-])n1CCO")
"431 mg/kg/day"
